The measurements presented in this section are drawn from PubChem BioAssay AID1159580.

# PROCEDURE SUMMARY: chemical genetic growth profiling, strain panel (AID 1159580);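 note: tested at 20 µM; growth read once vehicle control cultures reached saturation at 30 °C; 1 = growth at the plate median or of vehicle wells; lower values mean less growth of the strain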
# ASSAY SETUP: S. cerevisiae deletion strains, growth OD, locus YPR119W, strain clb2, hits give low values
Screen size: about 5,500 compounds; about 2,000 (36%) were called active. Inconclusive results (about 18%) are left out. The list shows a part of the results.
Can you tell me normalized growth for the items I'm about to list?
Write the value as a bare number.

Measured normalized growth, Nc1nc(=S)c2[nH]cnc2[nH]1 : 1.01

Measured normalized growth, O=C(O)c1cc2cc(F)ccc2[nH]1 : 1.01

Measured normalized growth, O=C(Oc1cc(O)cc2c1C[C@@H](OC(=O)c1cc(O)c(O)c(O)c1)[C@@H](c1cc(O)c(O)c(O)c1)O2)c1cc(O)c(O)c(O)c1 : 0.972

Measured normalized growth, O=C(O[C@@H]1Cc2c(O)cc(O)cc2O[C@@H]1c1cc(O)c(O)c(O)c1)c1cc(O)c(O)c(O)c1 : 1.02

Measured normalized growth, CCC(C)C(=O)O[C@@H]1C[C@@]2(C)[C@H](c3ccoc3)OC(=O)CC23OC2(C)O[C@]14[C@]1(C)[C@@H](CC(=O)OC)C5(C)CC1(O)[C@](O)(C5OC(=O)C1(C)OC1C)[C@@H](OC(C)=O)[C@]34O2 (stereo not given in full) : 1.01
